I'd be grateful if you could share measured TGI for these entries.
test system: HT29 colon; assay: NCI tumour cell line growth inhibition, 48 h

In the examples that follow, each entry is paired with its recorded TGI.
> print(dat)
                                   compound  measured.metric  value.observed
1  CC(=O)O[C@H]1C#C/C=C\C#CC[C@@H]2C(=O)N(C(=O)OC(C)(C)C)[C@@H]12              TGI        > 100 µM
2  Cc1ccc(S(=O)(=O)N(/N=C(\N)Oc2ccc(Cl)cc2)C(=N)Oc2ccc(Cl)cc2)cc1              TGI        > 100 µM
3  O=c1[nH]c(=O)n(C2OC(COP(=O)(O)OP(=O)(O)O)C(O)C2O)cc1F (stereo not given)              TGI         > 50 µM
4  N#Cc1cccc(NC(=O)c2ccc(C(=O)O)c(C(=O)c3ccc(C(=O)O)c(C(=O)Nc4cccc(C#N)c4)c3)c2)c1              TGI        > 100 µM

Below: the item to evaluate.
TGI in this record for `CC[C@@]1(O)C(=O)NCc2c1cc1n(c2=O)Cc2cc3ccccc3nc2-1` : > 93.7 µM

---

tested on: IGROV1 ovarian; assay: NCI tumour cell line growth inhibition, 48 h; in the data active means GI50 below about 0.43 µM; inactive means the rest
Your answer must be one of the following: y for active, n for inactive

Consider the worked cases shown below.
> print(dat)
                                item.smiles     measured.on  assigned.class
1  CC(C)C[C@H](NC(=O)[C@H](CCc1ccccc1)NC(=O)CN1CCOCC1)C(=O)N[C@@H](Cc1ccccc1)C(=O)N[C@@H](CC(C)C)C(=O)[C@@]1(C)CO1  IGROV1 ovarian               y
2  COc1ccc(-c2oc(=O)ccc2C#Cc2cc(OC)c(OC)c(OC)c2)cc1O  IGROV1 ovarian               n
3  O=C(/C=C/c1ccc(C(F)(F)F)cc1)c1ccc(Nc2nc(NCCO)nc(NCCO)n2)cc1  IGROV1 ovarian               n
4  CC[C@@]1(O)C(=O)NCc2c1cc1n(c2=O)Cc2cc3ccccc3nc2-1  IGROV1 ovarian               n
5              CCCCCCCCCCCCn1c(C)nc2ccccc21  IGROV1 ovarian               n

How did this test come out for `Nc1ncnc2c1c(C(F)(F)F)cn2[C@@H]1O[C@H](CO)[C@@H](O)[C@H]1O` ?
n

Name the outcome recorded for `O=C1c2ccccc2C(=O)c2c1ccc(C(Br)Br)c2[N+](=O)[O-]` in the assay.
n

Tell me the recorded outcome of this test for `COc1ccc(C(=O)c2cc(OC)c(OC)c(OC)c2)cc1OC(C)=O` .
y

What did the test return for `COc1cc(-c2cc(-c3ccc(N(C)C)cc3)nc(N3CCOCC3)c2C#N)cc(OC)c1OC` ?
n

---

tested on: TK-10 renal; assay: NCI tumour cell line growth inhibition, 48 h; in the data active means GI50 below about 0.43 µM; inactive means the rest
Classes to choose from: active, inactive

> print(dat)
                                item.smiles  assigned.class
1           O=C1NC(=O)/C(=C/C=C/c2ccccc2)S1        inactive
2  O=C1c2ccccc2C(=O)c2c1ccc(C(Br)Br)c2[N+](=O)[O-]        inactive
3         CC1(C)N=C(N)N=C(N)N1c1cccc(C#N)c1        inactive
4  COc1cc(-c2cc(-c3ccc(N(C)C)cc3)nc(N3CCOCC3)c2C#N)cc(OC)c1OC        inactive
5  Cn1c2ccccc2c(=Nc2ccccc2)c2c3ccccc3[nH]c21        inactive

Assay result, entry `Nc1ccc(-c2nc3ccc4[nH]ncc4c3c3c2CCCC3)cc1F` — outcome?
inactive

Tell me the assay call for `C/C1=C\[C@H](C)C[C@H](C)OC(=O)C[C@H](c2ccc(O)cc2)NC(=O)[C@@H](Cc2c(Br)[nH]c3ccccc23)N(C)C(=O)[C@H](C)NC(=O)[C@@H](C)C1` please.
active

Give the logged outcome of this assay for the following compound: `CCSc1oc(-c2ccccc2)nc1[P+](c1ccccc1)(c1ccccc1)c1ccccc1`
active

Fill in: this test's call for `COc1ccc(-c2oc(=O)ccc2C#Cc2cc(OC)c(OC)c(OC)c2)cc1O` is ___
inactive

---

system: OVCAR-3 ovarian; assay: NCI tumour cell line growth inhibition, 48 h; in the data active means GI50 below about 0.43 µM; inactive means the rest
Pick one: 1 (active), -1 (inactive)

compound	assigned_class
COc1ccc(-c2nn(-c3cccc(Cl)c3)cc2C=C(C#N)C#N)cc1	-1
CC(=O)Oc1ccc(OC(C)=O)c2ccccc12	-1
COc1ccc(-c2ccc3c(NC(=O)C4CC4)n[nH]c3n2)cc1	-1
CC1(C)CCC[C@]23C(=O)O[C@](O)(C(=O)C4=C[C@@](C)(/C=C/CCCc5ccc6ccc7cccc8ccc5c6c78)CC[C@@]42O)[C@@H]13	1
O=C(/C=C/c1ccc(C(F)(F)F)cc1)c1ccc(Nc2nc(NCCO)nc(NCCO)n2)cc1	-1

Could you kindly confirm the outcome this assay logged for COc1ccc(SC2c3cc(OC)c(OC)cc3Oc3nc(N)c(C#N)c(N)c32)cc1 (stereo unspecified) ?
-1

Assay result, entry C=C1CCC2C3(C)COC(c4ccc(NC(C)=O)cc4)OC3CCC2(C)C1C/C=C1/C(=O)OCC1O (stereo unspecified) — outcome?
-1

---

tested on: SK-OV-3 ovarian; experiment: NCI tumour cell line growth inhibition, 48 h; in the data active = GI50 below about 0.43 µM; inactive = the rest
Classes to choose from: active, inactive

Take a look at these entries with their results.
molecule	assigned_class
O=C1c2ccccc2C(=O)c2c1ccc(C(Br)Br)c2[N+](=O)[O-]	inactive
COc1ccc(SC2c3cc(OC)c(OC)cc3Oc3nc(N)c(C#N)c(N)c32)cc1 (stereo unspecified)	inactive
COc1cc(-c2cc(-c3ccc(N(C)C)cc3)nc(N3CCOCC3)c2C#N)cc(OC)c1OC	inactive
COc1ccc(-c2nn(-c3cccc(Cl)c3)cc2C=C(C#N)C#N)cc1	inactive
CN1/C(=C\C(I)C(I)C2=[N+](C)c3ccccc3C2(C)C)C(C)(C)c2ccccc21 (stereo unspecified)	active

// return assay outcome for C=C(C=O)C1CC(=O)C(C(=O)OC)[C@@H]2O[C@@](C)(CC2=O)C[C@@H]2OC(=O)[C@]3(O[C@@H]23)[C@@H](C(=O)OC)C1 (stereo partly specified)
inactive

Short answer needed: outcome of this test for `CCCCCCCCCCCCn1c(C)nc2ccccc21` ?
inactive

Per the assay record, what outcome was assigned to `O=C1c2[nH]cc(CN3CCNCC3)c2C(=O)c2c1c(O)c1ccccc1c2O` ?
inactive

---

test system: TK-10 renal; experiment: NCI tumour cell line growth inhibition, 48 h
For each record, write down the corresponding TGI.

Please review the entries below; each comes with its answer.
> print(dat)
                                   compound  measured.on  value.observed
1       CCc1nnc(-n2c(C)nc3cc(Cl)ccc3c2=O)s1  TK-10 renal        > 100 µM
2         C/C(=C\c1ccc(Cl)cc1)C(C)(C)C(=O)O  TK-10 renal        > 100 µM
3  O=C(c1ccccc1)c1c(C(F)(F)F)n([O-])c2ccccc2[n+]1=O  TK-10 renal          3.6 µM
4  O=C1c2[nH]cc(CN3CCNCC3)c2C(=O)c2c1c(O)c1ccccc1c2O  TK-10 renal         12.2 µM
5          CN(C)C[C@H]1CC[C@@H](CN(C)C)C1=O  TK-10 renal           15 µM

Report TGI for each item below.
1. O=C(/C=C/c1ccc(C(F)(F)F)cc1)c1ccc(Nc2nc(NCCO)nc(NCCO)n2)cc1
2. COc1ccc(C(=O)c2cc(OC)c(OC)c(OC)c2)cc1OC(C)=O
3. COc1ccc2cccc(C(=O)c3ccc(C)c4c3CCC4)c2c1
4. COc1cc2cc(C(=O)N3CC(CCl)c4c3cc(N)c3ccccc43)[nH]c2cc1OCCN(C)C (stereo unspecified)
5. S=c1nc(-c2nc(=S)[nH]c3c2CCCCCCCCCC3)c2c([nH]1)CCCCCCCCCC2
6. NC(=O)CCC(NC(=O)OCc1ccccc1)C(=O)OCC(=O)c1ccccc1 (stereo unspecified)

["14.5 µM", "> 100 µM", "> 100 µM", "8.67 µM", "> 100 µM", "> 100 µM"]

---

system: MDA-MB-435; assay: NCI tumour cell line growth inhibition, 48 h
Assign TGI to each entry below.

> print(dat)
                                   molecule  measured.metric  value.observed
1                         Nc1[nH]c(=O)ncc1F              TGI        > 100 µM
2  COC(=O)c1sc(=S)sc1SCc1ccccc1CSc1sc(=S)sc1C(=O)OC              TGI        > 100 µM
3  CCC1(CC)C(=O)CC[C@@]2(C)C1=CC[C@H]1[C@@H]3CC[C@H](O)[C@@]3(C)CC[C@@H]12              TGI        > 100 µM

State the recorded TGI for every item in the following list.
1. Cc1ccc(C(=O)N(C(C)C)C(C)C)cc1N=NN(C)C
2. O=C1NC(=O)/C(=C/C=C/c2ccccc2)S1
3. CC(=O)Oc1ccc(OC(C)=O)c2ccccc12
4. O=C(N/N=C\c1cccc2ccccc12)Nc1ccc([N+](=O)[O-])cc1
5. O=C1NC(=S)N/C1=C/c1ccccc1O

> 100 µM
> 78.7 µM
15 µM
> 100 µM
> 100 µM

// for each molecule in input: emit TGI
1. O=C(/C=C/c1ccc(-c2ccccc2[N+](=O)[O-])o1)NCc1ccc(C(=O)NCCc2ccccc2)cc1
2. CC(=O)N(CN1C(=O)CCC1C(=O)O)c1ccccc1 (stereo unspecified)
3. COC(=O)C(/C(=N/NC(=O)c1ccncc1)C(=O)Nc1ccccc1OC)c1nc2ccc(Cl)cc2[nH]c1=O (stereo unspecified)

1. > 100 µM
2. > 100 µM
3. > 100 µM

Ref: PubChem BioAssay (NCI)
